# Test system: T-47D breast
# procedure_summary: NCI tumour cell line growth inhibition, 48 h
Think of 20 µM as a floor: if TGI stands on it or above, it is TRUE; beneath it, FALSE.

## Task Record CC(=O)Nc1ccc(-c2nc3ccccc3s2)cc1I ; criterion: TGI no lower than 20 µM. Met?
## Result TRUE

## Task Record Cc1ccc(C(SCC(N)C(=O)O)(c2ccc(C)cc2)c2ccc(C)cc2)cc1 (stereo not drawn) ; criterion: TGI no lower than 20 µM. Met?
## Result TRUE

## Task Record COc1ccc(OCc2ccc3nc(-c4ccccc4)c(Cl)nc3c2)cc1 ; criterion: TGI no lower than 20 µM. Met?
## Result TRUE

## Task Record CC(=O)OC/C=C\Cn1nc(Br)c(=O)[nH]c1=O ; criterion: TGI no lower than 20 µM. Met?
## Result TRUE

## Task Record CN(C)c1ccc(N=C2C=CC(=[N+](C)C)C=C2)cc1 ; criterion: TGI no lower than 20 µM. Met?
## Result TRUE

## Task Record COc1ccc2c(CN3CCC(C(=O)O)CC3)cc3cc4c(cc3c2c1)OCO4 ; criterion: TGI no lower than 20 µM. Met?
## Result FALSE

## Task Record C=C(C)[C@@]1(OC(=O)c2cc([N+](=O)[O-])cc([N+](=O)[O-])c2)C[C@@H]2CCCC[C@@H]21 ; criterion: TGI no lower than 20 µM. Met?
## Result TRUE

## Task Record NC(=O)c1ccc(NN=O)nc1 ; criterion: TGI no lower than 20 µM. Met?
## Result TRUE

## Task Record COc1cc(-c2nc3ccccc3s2)ccc1NC(=O)COc1ccc(Cl)cc1 ; criterion: TGI no lower than 20 µM. Met?
## Result TRUE

## Task Record CCN(CC)CCOc1ccccc1/C=C/c1noc2ccccc12 ; criterion: TGI no lower than 20 µM. Met?
## Result TRUE

## Task Record O=C(O)CCc1ccc2c(c1)C(=O)CC2 ; criterion: TGI no lower than 20 µM. Met?
## Result TRUE

## Task Record CN(C)S(=O)(=O)/N=C/c1cccc(/C=N/S(=O)(=O)N(C)C)c1 ; criterion: TGI no lower than 20 µM. Met?
## Result TRUE

## Task Record CNC(=O)OCc1c2ccncc2c(C)c2c1[nH]c1ccccc12 ; criterion: TGI no lower than 20 µM. Met?
## Result FALSE

## Task Record CN(C)CCNC(=O)C(C)(C)Oc1ccc(C(=O)c2ccc(Cl)cc2)cc1Cl ; criterion: TGI no lower than 20 µM. Met?
## Result TRUE

## Task Record Oc1ccc(O)c(-c2cn3ccsc3n2)c1 ; criterion: TGI no lower than 20 µM. Met?
## Result TRUE

## Task Record NC1CCC(Nc2nc(NCc3ccc(-c4cccs4)nc3)c3ncn(C4CCCC4)c3n2)CC1 (stereo not drawn) ; criterion: TGI no lower than 20 µM. Met?
## Result FALSE

## Task Record CC(NC(=O)c1ccccc1)NC(=O)C(C)C(=O)Nc1ccccc1 (stereo not drawn) ; criterion: TGI no lower than 20 µM. Met?
## Result TRUE

## Task Record N#C/C(C(=O)Nc1ccc(Cl)cc1)=C(/N)N1CCCCC1 ; criterion: TGI no lower than 20 µM. Met?
## Result TRUE

## Task Record O=C1NC(=O)C(=C/C=C/c2ccccc2)C(=O)N1 ; criterion: TGI no lower than 20 µM. Met?
## Result TRUE

## Task Record CCOC(=O)c1cnc2n(c1=N)[C@H]1CCCC[C@@H]1N2 ; criterion: TGI no lower than 20 µM. Met?
## Result TRUE

## Task Record COc1cc(OC)c(/C=C\c2ccnc3ccccc23)c(OC)c1 ; criterion: TGI no lower than 20 µM. Met?
## Result FALSE

## Task Record COc1ccc2cc(-c3cc4c(oc3=O)-c3ccccc3OC4O)c(=O)oc2c1 (stereo not drawn) ; criterion: TGI no lower than 20 µM. Met?
## Result TRUE

###

# Tested on: SNB-19 CNS
# procedure_summary: NCI tumour cell line growth inhibition, 48 h
value_type: TGI

## Task In one line, give reported TGI of the entry CN(NC(=O)c1cccs1)C1=NCCCCN1 .
## Result > 100 µM

## Task In one line, give reported TGI of the entry Cc1nnc2sc(NN)nn12 .
## Result > 100 µM

## Task In one line, give reported TGI of the entry CC(C)(C)Nc1noc(=O)n1C(C)(C)C .
## Result > 100 µM

## Task In one line, give reported TGI of the entry c1cc2c(c(NC3=NCCO3)c1)CCC2 .
## Result > 100 µM

## Task In one line, give reported TGI of the entry S=C1CC(c2ccccc2)Sc2ccccc2N1 (centres undefined) .
## Result > 100 µM

## Task In one line, give reported TGI of the entry CC(/C(=N\Nc1ccccc1)c1ccc(O)cc1)C1C(=O)Oc2ccccc21 (centres undefined) .
## Result > 100 µM

## Task In one line, give reported TGI of the entry CN(C)CCN=C1Nc2ccccc2C(=S)N2CSCC12 (centres undefined) .
## Result > 100 µM

## Task In one line, give reported TGI of the entry COc1cc(OC)c(/C=C\c2cc(/C=C/c3c(OC)cc(OC)cc3OC)c3ccccc3[n+]2C)c(OC)c1 .
## Result 40 µM

## Task In one line, give reported TGI of the entry COc1cc(OC)c2nc(C)c3c(c2c1)NCC3 .
## Result 40.7 µM

## Task In one line, give reported TGI of the entry CC(C)NC(=O)OCc1c(COC(=O)NC(C)C)c(-c2cc[n+](COC(=O)C(C)(C)C)cc2)n2c1CCC2 .
## Result > 100 µM

## Task In one line, give reported TGI of the entry CC1CC[C@@]2(OC1)OC1CC3C4CCC5C[C@@H](OC6OC(CO)C(OC7OC(CO)C(O)C(OC8OC(CO)C(O)C(OC9OC(CO)C(O)C(O)C9O)C8O)C7OC7OC(CO)C(O)C(O)C7O)C(O)C6O)[C@H](O)C[C@]5(C)C4CC[C@]3(C)C1[C@@H]2C (some centres undefined) .
## Result > 80.5 µM

## Task In one line, give reported TGI of the entry Oc1ccc(N=C2CCC(=C(c3ccccc3)c3ccc(Nc4ccc(O)cc4)cc3)CC2)cc1 .
## Result > 100 µM

## Task In one line, give reported TGI of the entry CN(C)CCNC(=O)C(C)(C)Oc1ccc(C(=O)c2ccc(Cl)cc2)cc1Cl .
## Result 26 µM

## Task In one line, give reported TGI of the entry COc1ccc(C(SCC(N)C(=O)O)(c2ccccc2)c2ccccc2)cc1 (centres undefined) .
## Result > 100 µM

## Task In one line, give reported TGI of the entry CN(Cc1cc(Br)cc(Br)c1O)Cc1cc(Br)cc(Br)c1O .
## Result 36 µM

## Task In one line, give reported TGI of the entry CCCCCCCCCCCCCC(=O)OCC1OC(n2cc(F)c(=O)[nH]c2=O)C(NC(=O)OCc2ccccc2)C(OC(=O)CCCCCCCCCCCCC)C1O (centres undefined) .
## Result > 100 µM

## Task In one line, give reported TGI of the entry Cc1ccc(Nc2c(C#N)[n+]([O-])c3cc(Cl)ccc3[n+]2[O-])cc1 .
## Result > 100 µM

## Task In one line, give reported TGI of the entry CCN(CC)CCOc1ccccc1/C=C/c1noc2ccccc12 .
## Result 26.7 µM

## Task In one line, give reported TGI of the entry COC(=O)[C@]12CC[C@@H](C)[C@H](C)[C@@H]1C1=CC[C@@H]3[C@@]4(C)C(C=O)=C[C@@](C)(COC(C)=O)C4=CC[C@@]3(C)[C@]1(C)CC2 .
## Result 25.6 µM

###

# System: NCI-H23 lung
# procedure_summary: NCI tumour cell line growth inhibition, 48 h; in the data active = GI50 below about 0.43 µM; inactive = the rest
Respond using exactly one of the listed classes: active, inactive

## Task Could you check what this test reported for O=C1c2ccccc2S(=O)(=O)N1CSC(=S)N1CCCCC1 ?
## Result inactive

## Task Could you check what this test reported for O=C(/C(=C\c1ccc([N+](=O)[O-])cc1)S(=O)Cc1ccc(F)cc1)c1ccc(F)cc1 (centres undefined) ?
## Result inactive

## Task Could you check what this test reported for O=C1Nc2c(C(F)(F)F)cccc2[C@@]1(c1ccc(O)cc1)c1ccc(OC(F)(F)F)cc1 ?
## Result active

## Task Could you check what this test reported for Nc1nc(OCc2cc(Br)cs2)c2[nH]cnc2n1 ?
## Result inactive

## Task Could you check what this test reported for O=C(c1ccccc1)c1ccc(Oc2ccc([N+](=O)[O-])cc2[N+](=O)[O-])cc1 ?
## Result inactive

## Task Could you check what this test reported for CN(C)CCNC(=O)C(C)(C)Oc1ccc(C(=O)c2ccc(Cl)cc2)cc1Cl ?
## Result inactive

## Task Could you check what this test reported for CCOC(=O)c1c(C)n2c(=O)cc(C)c3c(O)c(O)cc1c32 ?
## Result inactive

## Task Could you check what this test reported for Cc1ccc2ncnc(N(CC(C)C)CC(C)C)c2c1 ?
## Result inactive

## Task Could you check what this test reported for NC1CCC(Nc2nc(NCc3ccc(-c4cccs4)nc3)c3ncn(C4CCCC4)c3n2)CC1 (centres undefined) ?
## Result active
